System: HEK-293T
Test: Multiplex assay against HEK293T
Format: toxicity, cell-based
Details: human, 48 h, 10 µM, compound concentration 10 uM, replicate 1
quantityName: Population Normal (%)
Please reply with the bare figure in % and do not write the unit itself.

In the examples that follow, each entry is paired with its recorded Population Normal (%).
- itemSmiles: "COCC(=O)NC/C=C/c1ccc2ncnc(Nc3ccc(Oc4ccc(C)nc4)c(C)c3)c2c1"
  quantityName: "Population Normal (%)"
  assayValue: 77
- itemSmiles: "CCOc1cc(C(=O)N2CCC(N3CCN(C)CC3)CC2)ccc1Nc1ncc2c(n1)N(C1CCCC1)c1ccccc1C(=O)N2C"
  quantityName: "Population Normal (%)"
  assayValue: 79
- itemSmiles: "CNc1cc(Oc2cc(C(=O)Nc3cc(N4CCN(C)CC4)cc(C(F)(F)F)c3)ccc2C)ncn1"
  quantityName: "Population Normal (%)"
  assayValue: 70

Shift focus to the following entry.
The compound CCn1c(=O)c(-c2ccc(-c3cncs3)cc2Cl)cc2cnc(Nc3ccc(N4CCN(C)CC4)cc3)nc21 showed Population Normal (%) equal to 25
